# METHOD DESCRIPTION: Geometric mean of antibacterial activity (Gram -ve bacteria) of the compound
# Type: functional
Categorized via Geometric mean: low interval (below 0.6), middle interval (0.6 to below 6), high interval (6 or more)

Use these answered entries as a reference point.
compound=Cc1c(N2CC=CCC2)c(N)cc2c(=O)c(C(=O)O)cn(C3CC3)c12 class="high interval"
compound=Cc1c(N2CCC(C)CC2)c(N(C)C)cc2c(=O)c(C(=O)O)cn(C3CC3)c12 class="high interval"
compound=Cc1c(N2CC3CCC2CC3)c(N)cc2c(=O)c(C(=O)O)cn(C3CC3)c12 class="middle interval"
compound="Cc1c(N2CC(C)CC(C)C2)c(N)cc2c(=O)c(C(=O)O)cn(C3CC3)c12 (stereo not given)" class="middle interval"
compound=Cc1c(N2CCCCCC2)c(N)cc2c(=O)c(C(=O)O)cn(C3CC3)c12 class="middle interval"

Kindly state the category for this compound: Cc1c(N2CCOCC2)c(N)cc2c(=O)c(C(=O)O)cn(C3CC3)c12
low interval

// bin(item) where item = Cc1c(N2CCC(C)CC2)c(N)cc2c(=O)c(C(=O)O)cn(C3CC3)c12
low interval

Returns: class label. Input: CC1CN(c2cc3c(cc2N)c(=O)c(C(=O)O)cn3C2CC2)CCS1 (stereo not given)
low interval

# classify by Geometric mean band: Nc1cc2c(=O)c(C(=O)O)cn(C3CC3)c2cc1N1CCCC1
high interval

* * *

# System: Klebsiella pneumoniae
# METHOD DESCRIPTION: Antibacterial activity tested against Klebsiella pneumoniae (Klebsiella pneumoniae) ATCC 10031
# Assay type: functional
MEASURED PROPERTY: MIC
Answer as a quantity: numeral, then unit.

Worked examples, 4 molecules total:
molecule=COc1ccc(-n2cc(C(=O)O)c(=O)c3cc(N)c(N4CCN(C)CC4)c(C)c32)cc1 recorded_result="16 µg/mL"
molecule=Cc1c(N2CCCCC2)c(F)cc2c(=O)c(C(=O)O)cn(C3CC3)c12 recorded_result="0.125 µg/mL"
molecule=Cc1c(N2CCC(O)CC2)c(N)cc2c(=O)c(C(=O)O)cn(C3CC3)c12 recorded_result="0.03 µg/mL"
molecule="Cc1c(N2CCC3CCCCC3C2)c(N)cc2c(=O)c(C(=O)O)cn(C3CC3)c12 (stereo not given)" recorded_result="0.125 µg/mL"

Measured MIC of Cc1c(N2CC(C)OC(C)C2)c(N)cc2c(=O)c(C(=O)O)cn(C3CC3)c12 (stereo not given) : 0.03 µg/mL

Form field MIC, entry Cc1c(N2CCSCC2)c(N)cc2c(=O)c(C(=O)O)cn(C3CC3)c12 : 0.02 µg/mL

* * *

# Tested on: Staphylococcus aureus
# METHOD DESCRIPTION: Antibacterial activity against Staphylococcus aureus ATCC 6538
# Assay type: functional
Listed below: MIC values for each entry.
Field format: number, assumed µg/mL, no unit text.

Some compounds with known MIC results, for comparison:
compound=Cc1c(N2CCCC2)c(N)cc2c(=O)c(C(=O)O)cn(C3CC3)c12 measured_property=MIC recorded_result=4
compound=CN1CCN(c2cc3c(cc2N)c(=O)c(C(=O)O)cn3C2CC2)CC1 measured_property=MIC recorded_result=2
compound=Cc1c(N2CCN(C)CC2)c(F)cc2c(=O)c(C(=O)O)cn(C3CC3)c12 measured_property=MIC recorded_result=0.06

Would you kindly look at the next entry?
MIC recorded for this compound, COc1ccc(-n2cc(C(=O)O)c(=O)c3cc(N)c(N4CCN(C)CC4)c(C)c32)cc1 , is 64

* * *

# System: Shigella
# METHOD DESCRIPTION: Antibacterial activity tested against Shigella enteritidis
# Format: functional
MEASURED PROPERTY: MIC (µg/mL)
Output spec: scalar in µg/mL, unitless text.

The compound identified as CN1CCN(c2cc3c(cc2N)c(=O)c(C(=O)O)cn3-c2ccc(F)cc2)CC1 registered its MIC at 4

Recorded MIC (compound Cc1c(N2CCC3CCCCC3C2)c(N)cc2c(=O)c(C(=O)O)cn(C3CC3)c12 (centres undefined) ): 2

response.value for Cc1c(N2CCCC(C)(C)C2)c(N)cc2c(=O)c(C(=O)O)cn(C3CC3)c12 (field: MIC) = 16

Consider Cc1c(N2CCc3ccccc3C2)c(F)cc2c(=O)c(C(=O)O)cn(C3CC3)c12 . Its measured MIC is 0.25

* * *

# Test system: Escherichia coli
# METHOD DESCRIPTION: Antibacterial activity tested against Escherichia coli ISF 432
# Type: functional
MEASURED PROPERTY: log10 MIC (log10 of the value in µg/mL)
Record value = log10 of MIC given in µg/mL.

Record excerpt, results attached:
mol_smiles=CN1CCN(c2nc3c(cc2N)c(=O)c(C(=O)O)cn3C2CC2)CC1 recorded_result=-1.22
mol_smiles=Cc1c(N2CCCC(C)(C)C2)c(N)cc2c(=O)c(C(=O)O)cn(C3CC3)c12 recorded_result=-0.30
mol_smiles=Nc1cc2c(=O)c(C(=O)O)cn(C3CC3)c2cc1N1CCCC1 recorded_result=-0.60
mol_smiles=Cc1c(N2CCCCC2)c(N)cc2c(=O)c(C(=O)O)cn(C3CC3)c12 recorded_result=-1.52

Kindly consider the entry below.
With Escherichia coli as the test system, Cc1c(N2CC3CCC2CC3)c(N)cc2c(=O)c(C(=O)O)cn(C3CC3)c12 showed log10 MIC of -0.52

* * *

# System: Staphylococcus aureus
# METHOD DESCRIPTION: Antibacterial activity against Staphylococcus aureus MPR 5
# Format: functional
MEASURED PROPERTY: MIC (µg/mL)
Numbers only here, please. The scale is µg/mL.

Example results:
compound="CC1CN(c2cc3c(cc2N)c(=O)c(C(=O)O)cn3C2CC2)CC(C)(C)N1 (stereo not given)" measured_property=MIC recorded_result=8
compound=Nc1cc2c(=O)c(C(=O)O)cn(C3CC3)c2cc1N1CCNCC1 measured_property=MIC recorded_result=64
compound=Cc1c(N2CCc3ccccc3C2)c([N+](=O)[O-])cc2c(=O)c(C(=O)O)cn(C3CC3)c12 measured_property=MIC recorded_result=0.25
compound=CN1CCN(c2cc3c(cc2N)c(=O)c(C(=O)O)cn3-c2ccc(F)cc2)CC1 measured_property=MIC recorded_result=4
compound="CC1CN(c2cc3c(cc2N)c(=O)c(C(=O)O)cn3C2CC2)CCS1 (stereo not given)" measured_property=MIC recorded_result=0.5
compound=COc1ccc(-n2cc(C(=O)O)c(=O)c3cc(N)c(N4CCN(C)CC4)c(C)c32)cc1 measured_property=MIC recorded_result=64

The compound Cc1c(N2CCCCC2)c([N+](=O)[O-])cc2c(=O)c(C(=O)O)cn(C3CC3)c12 showed MIC equal to 1

# MIC (compound: Cc1c(N2CCCCCC2)c(N)cc2c(=O)c(C(=O)O)cn(C3CC3)c12 ) is 0.125

Lookup result for Cc1c(N2CCC2)c(N)cc2c(=O)c(C(=O)O)cn(C3CC3)c12 ; measured MIC: 8

Noted for Cc1c(N2CCC(C)CC2)c([N+](=O)[O-])cc2c(=O)c(C(=O)O)cn(C3CC3)c12 : its MIC reads 2

The compound identified as Cc1c(N2CCCC(C)(C)C2)c(N)cc2c(=O)c(C(=O)O)cn(C3CC3)c12 registered its MIC at 0.5

Documented MIC of Cc1c(N2CCSCC2)c(N)cc2c(=O)c(C(=O)O)cn(C3CC3)c12 : 0.06

Entry Cc1c(N2CC(C)OC(C)C2)c(N)cc2c(=O)c(C(=O)O)cn(C3CC3)c12 (stereo not given) ; MIC = 0.06

Form field MIC, entry Cc1c(N2CC3CCC2CC3)c(N)cc2c(=O)c(C(=O)O)cn(C3CC3)c12 : 0.03

get_value(item= Cc1c(N2CCNC(C)C2)c(N)cc2c(=O)c(C(=O)O)cn(C3CC3)c12 (stereo not given) , readout=MIC) returns 1

// Cc1c(N2CCC3CCCCC3C2)c(N)cc2c(=O)c(C(=O)O)cn(C3CC3)c12 (stereo not given) : MIC value = 0.06

* * *

Reported MIC values for the following compounds.
# Tested on: Klebsiella pneumoniae
# METHOD DESCRIPTION: Antibacterial activity tested against Klebsiella pneumoniae (Klebsiella pneumoniae) ATCC 10031
# Type: functional
Give the value, in units of µg/mL, as a plain number.

Example entries begin here.
compound=Cc1c(N2CCNCC2)c(N)cc2c(=O)c(C(=O)O)cn(C3CC3)c12 measured_property=MIC recorded_result=0.03
compound=Nc1cc2c(=O)c(C(=O)O)cn(C3CC3)c2cc1N1CCc2ccccc2C1 measured_property=MIC recorded_result=128
compound=Cc1c(N2CCC(C)CC2)c(N(C)C)cc2c(=O)c(C(=O)O)cn(C3CC3)c12 measured_property=MIC recorded_result=64

MIC recorded for this compound, Cc1c(N2CC(C)CC(C)C2)c(N)cc2c(=O)c(C(=O)O)cn(C3CC3)c12 (centres undefined) , is 0.06
